- TARGET: GAL4-PPARα LBD (Homo sapiens, UniProt Q07869)
- Construct: chimeric receptors containing the LBD of various NRs; expressed in transfected cells; host or cells: HEK293
- MEASUREMENT_NOTES: GAL4-PPARα LBD luciferase reporter assay in HEK293 cells
- Type: cell-based
- CONDITION_SET: 100 μM fatty acids, Fig. 1B
MEASUREMENT_NAME: ligand-induced activation of PPARα (in words)

> print(dat)
                                   compound               result
1  CCCCCC(O)CCC(O)CCCCCCCCC(=O)O (stereo not drawn) [HYE]  little or no effect
2  CCCCCC(O)CC/C=C\CCCCCCCC(=O)O (stereo not drawn) [HYD]  little or no effect
3  CC/C=C\CC(O)CCC(O)CCCCCCCCC(=O)O (stereo not drawn) [αHYE]  little or no effect
4  CC/C=C\CC(=O)CC/C=C\CCCCCCCC(=O)O [αKetoD]  little or no effect
5    CCCCCC(=O)CC/C=C\CCCCCCCC(=O)O [KetoD]  little or no effect

// next item, ligand-induced activation of PPARα (in words) requested
Data request: Note ligand-induced activation of PPARα (in words) for the compound shown: CC/C=C\CC(O)CC/C=C\CCCCCCCC(=O)O (stereo not drawn) [αHYD]
Data returned: little or no effect

###

- TARGET: VP16-PPARα / GAL4-SRC-1 (Homo sapiens, UniProt Q07869)
- Construct: expressed in transfected cells; host or cells: HEK293
- Sequence (Q07869 whole entry, the tested form may be a part): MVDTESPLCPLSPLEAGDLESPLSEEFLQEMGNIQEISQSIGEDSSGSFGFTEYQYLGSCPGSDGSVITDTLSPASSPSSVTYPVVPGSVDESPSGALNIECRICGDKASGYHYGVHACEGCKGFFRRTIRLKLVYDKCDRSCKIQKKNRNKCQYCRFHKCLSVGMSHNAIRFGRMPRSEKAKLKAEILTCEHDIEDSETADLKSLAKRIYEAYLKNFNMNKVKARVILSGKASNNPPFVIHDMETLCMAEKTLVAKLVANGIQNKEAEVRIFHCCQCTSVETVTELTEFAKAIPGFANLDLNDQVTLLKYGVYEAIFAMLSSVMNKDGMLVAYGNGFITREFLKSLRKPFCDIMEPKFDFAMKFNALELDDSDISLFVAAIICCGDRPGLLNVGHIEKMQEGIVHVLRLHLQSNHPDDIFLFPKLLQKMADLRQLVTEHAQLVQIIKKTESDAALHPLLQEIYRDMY
- Sequence (Q15788 595-771 partner limits assumed): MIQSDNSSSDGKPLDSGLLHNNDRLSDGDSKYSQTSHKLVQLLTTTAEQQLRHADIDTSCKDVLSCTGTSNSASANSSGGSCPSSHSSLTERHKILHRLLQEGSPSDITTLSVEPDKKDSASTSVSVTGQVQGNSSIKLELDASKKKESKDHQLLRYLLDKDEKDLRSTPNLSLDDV
- MEASUREMENT_NOTES: mammalian two-hybrid assay, VP16-PPARα and coactivator GAL4-SRC-1
- Assay type: cell-based
- CONDITION_SET: 30 μM fatty acids, 1 μM GW7647, HEK293 cells, Fig. 3B
MEASUREMENT_NAME: recruitment of coactivator SRC-1 to PPARα

> print(dat)
                                   molecule  result
1  CCCCC/C=C\C/C=C\C/C=C\CCCCC(=O)O [GLA, γ-linolenic acid, reference compound]     not

###

- TARGET: VP16-PPARδ / GAL4-SRC-1 (Homo sapiens, UniProt Q03181)
- Construct: expressed in transfected cells; host or cells: HEK293
- MEASUREMENT_NOTES: mammalian two-hybrid assay, VP16-PPARδ and coactivator GAL4-SRC-1
- Format: cell-based
- CONDITION_SET: 30 μM fatty acids, 100 nM GW1516, HEK293 cells, Fig. 3A
MEASUREMENT_NAME: recruitment of coactivator SRC-1 to PPARδ

> print(dat)
                                   molecule  result
1  CCCCC/C=C\C/C=C\C/C=C\CCCCC(=O)O [GLA, γ-linolenic acid, reference compound]     not

###

Field: pEC50. Provide a value for each of the compounds that follow.
- TARGET: GAL4-PPARδ LBD (Homo sapiens)
- Construct: chimeric receptors containing the LBD of various NRs
- Sequence (Q03181 211-439 limits assumed): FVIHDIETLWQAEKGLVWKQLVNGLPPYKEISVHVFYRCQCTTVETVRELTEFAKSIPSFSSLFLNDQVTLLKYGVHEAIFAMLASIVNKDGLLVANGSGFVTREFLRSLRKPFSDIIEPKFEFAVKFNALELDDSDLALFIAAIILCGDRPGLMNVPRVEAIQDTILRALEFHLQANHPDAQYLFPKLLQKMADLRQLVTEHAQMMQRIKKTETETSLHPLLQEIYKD
- MEASUREMENT_NOTES: GAL4-PPARδ LBD luciferase reporter assay in HEK293 cells
- CONDITION_SET: GAL4-PPARδ LBD, calculated from luciferase activity with Quest Graph EC50 Calculator
Give bare numbers, as −log10 of the molar value.

See these solved cases before continuing.
> print(dat)
                                   compound  numeric.value
1  CCCCCC(=O)CCC=CCC=CCCCCC(=O)O [γKetoD, 13-oxo-cis-6,cis-9-octadecadienoic acid]           4.69
2  CCCCC/C=C\C/C=C\C/C=C\CCCCC(=O)O [GLA, γ-linolenic acid, reference compound]           3.29

// next item, pEC50 requested
Data request: Note pEC50 for the compound shown: CC/C=C\C/C=C\C/C=C\C/C=C\C/C=C\C/C=C\CCC(=O)O [DHA, docosahexaenoic acid, reference compound]
Data returned: 4.35

Where do these numbers come from? They come from paper PMC9636582.
